Tested on: L540cy, HL
details: Table 4; cAC10 ADCs DAR 8, 96 h
Property: IC50, L540cy, HL; scope: individual molecules
measuredProperty: IC50, L540cy, HL

{"molecule": "CCO[C@H](C[C@H](C(C)C)N(C)C(=O)[C@@H](NC(=O)[C@H]1CCCC[N+]1(C)Cc1ccc(O[C@@H]2O[C@H](C(=O)O)[C@@H](O)[C@H](O)[C@H]2O)c(NC(=O)CCNC(=O)[C@H](CCCCNC(=O)CCOCCOCCOCCOCCOCCOCCOCCOCCOCCOCCOCCOC)NC(=O)[C@H](CN)N2C(=O)C=CC2=O)c1)[C@@H](C)CC)c1nc(C(=O)N[C@@H](Cc2ccccc2)C[C@H](C)C(=O)O)cs1 (stereo partly drawn)", "measuredProperty": "IC50, L540cy, HL", "result": "5 ng/mL"}
{"molecule": "CC[C@H](C)[C@H](NC(=O)[C@H]1CCCC[N+]1(C)Cc1ccc(O[C@@H]2O[C@H](C(=O)O)[C@@H](O)[C@H](O)[C@H]2O)c(NC(=O)CCNC(=O)[C@H](CN)N2C(=O)C=CC2=O)c1)C(=O)N(C)[C@H](C[C@@H](OC(C)=O)c1nc(C(=O)N[C@@H](Cc2ccccc2)C[C@H](C)C(=O)O)cs1)C(C)C (stereo partly drawn)", "measuredProperty": "IC50, L540cy, HL", "result": "4 ng/mL"}
{"molecule": "CC[C@H](C)[C@H](NC(=O)[C@H]1CCCC[N+]1(C)Cc1ccc(O[C@@H]2O[C@H](C(=O)O)[C@@H](O)[C@H](O)[C@H]2O)c(NC(=O)CCNC(=O)[C@H](CN)N2C(=O)C=CC2=O)c1)C(=O)N(C)[C@H](C[C@@H](OC)c1nc(C(=O)N[C@@H](Cc2ccccc2)C[C@H](C)C(=O)O)cs1)C(C)C (stereo partly drawn)", "measuredProperty": "IC50, L540cy, HL", "result": "10 ng/mL"}

----------
System: HL60/RV, MDR + AML
protocolText: In vitro assays - tubulysin free drugs, CellTiter-Glo growth inhibition
Format: cell-based
details: Homo sapiens, HL-60, 96 h, Table 3; lantern-made analogues >85% purity, 96 hour exposure
Protocol: In vitro assays. Cells cultured in log-phase growth were seeded for 24 h in 96-well plates containing 150 μL RPMI 1640 supplemented with 20% FBS. […] After 96 h, growth inhibition was assessed by CellTiter-Glo® (Promega, Madison, WI) and luminescence was measured on a plate reader. […] In vitro assays—tubulysin free drugs. Cells were treated for 96 hours with tubulysin ether analogs (40-42) or tubulysin M (7), then assessed for viability as described in the methods. […]
pIC50: −log10 of the molar value.
measuredProperty: pIC50

{"compound": "CCO[C@H](C[C@H](C(C)C)N(C)C(=O)[C@@H](NC(=O)C12CC(CCN1C)C2)[C@@H](C)CC)c1nc(C(=O)N[C@@H](Cc2ccccc2)C[C@H](C)C(=O)O)cs1 [Compound 217]", "measuredProperty": "pIC50", "censoringOperator": "=", "number": 6.61}
{"compound": "CCO[C@H](C[C@H](C(C)C)N(C)C(=O)[C@H](CC1CCCCC1)NC(=O)[C@H]1CCCCN1C)c1nc(C(=O)N[C@@H](Cc2ccccc2)C[C@H](C)C(=O)O)cs1 [Compound 213]", "measuredProperty": "pIC50", "censoringOperator": "<", "number": 6.00}
{"compound": "CCO[C@H](C[C@H](C(C)C)N(C)C(=O)[C@@H](NC(=O)[C@H]1CCCCN1C)C1CCCC1)c1nc(C(=O)N[C@@H](Cc2ccccc2)C[C@H](C)C(=O)O)cs1 [Compound 204]", "measuredProperty": "pIC50", "censoringOperator": "=", "number": 7.40}
{"compound": "CCO[C@H](C[C@H](C(C)C)N(C)C(=O)[C@@H](NC(=O)[C@H]1CCCCN1C)C1CCCCC1)c1nc(C(=O)N[C@@H](Cc2ccccc2)C[C@H](C)C(=O)O)cs1 [Compound 205]", "measuredProperty": "pIC50", "censoringOperator": "=", "number": 6.75}
{"compound": "CCO[C@H](C[C@H](C(C)C)N(C)C(=O)[C@@H](NC(=O)[C@H]1[C@H]2CC[C@H](CC2)N1C)[C@@H](C)CC)c1nc(C(=O)N[C@@H](Cc2ccccc2)C[C@H](C)C(=O)O)cs1 [Compound 218]", "measuredProperty": "pIC50", "censoringOperator": "<", "number": 6.00}
{"compound": "CCO[C@H](C[C@H](C(C)C)N(C)C(=O)[C@@H](NC(=O)[C@@H](C(C)C)N(C)C)[C@@H](C)CC)c1nc(C(=O)N[C@@H](Cc2ccccc2)C[C@H](C)C(=O)O)cs1 [Compound 220]", "measuredProperty": "pIC50", "censoringOperator": "<", "number": 6.00}
{"compound": "CCO[C@H](C[C@H](C(C)C)N(C)C(=O)[C@@H](NC(=O)[C@H]1CCCCN1C)[C@H](C)CC)c1nc(C(=O)N[C@@H](Cc2ccccc2)C[C@H](C)C(=O)O)cs1 [Compound 209]", "measuredProperty": "pIC50", "censoringOperator": "<", "number": 6.00}
{"compound": "CCO[C@H](C[C@H](C(C)C)N(C)C(=O)[C@@H](NC(=O)[C@H]1CCCCN1C)[C@@H](C)OC)c1nc(C(=O)N[C@@H](Cc2ccccc2)C[C@H](C)C(=O)O)cs1 [Compound 207]", "measuredProperty": "pIC50", "censoringOperator": "<", "number": 6.00}
{"compound": "CCO[C@H](C[C@H](C(C)C)N(C)C(=O)[C@@H](NC(=O)[C@@]1(C)CCCN1C)[C@@H](C)CC)c1nc(C(=O)N[C@@H](Cc2ccccc2)C[C@H](C)C(=O)O)cs1 [Compound 221]", "measuredProperty": "pIC50", "censoringOperator": "=", "number": 6.28}
